// values below are reported ICB, inhibitory concentration that completely blocks MsTopA binding
molecular target: MsTopA (Mycolicibacterium smegmatis, UniProt A0R5D9); experiment: Surface plasmon resonance of MsTopA binding to immobilized DNA; parameters: species or system M. smegmatis; details: 241 bp DNA on chip, inhibitor preincubated with MsTopA
Sequence (A0R5D9 whole entry): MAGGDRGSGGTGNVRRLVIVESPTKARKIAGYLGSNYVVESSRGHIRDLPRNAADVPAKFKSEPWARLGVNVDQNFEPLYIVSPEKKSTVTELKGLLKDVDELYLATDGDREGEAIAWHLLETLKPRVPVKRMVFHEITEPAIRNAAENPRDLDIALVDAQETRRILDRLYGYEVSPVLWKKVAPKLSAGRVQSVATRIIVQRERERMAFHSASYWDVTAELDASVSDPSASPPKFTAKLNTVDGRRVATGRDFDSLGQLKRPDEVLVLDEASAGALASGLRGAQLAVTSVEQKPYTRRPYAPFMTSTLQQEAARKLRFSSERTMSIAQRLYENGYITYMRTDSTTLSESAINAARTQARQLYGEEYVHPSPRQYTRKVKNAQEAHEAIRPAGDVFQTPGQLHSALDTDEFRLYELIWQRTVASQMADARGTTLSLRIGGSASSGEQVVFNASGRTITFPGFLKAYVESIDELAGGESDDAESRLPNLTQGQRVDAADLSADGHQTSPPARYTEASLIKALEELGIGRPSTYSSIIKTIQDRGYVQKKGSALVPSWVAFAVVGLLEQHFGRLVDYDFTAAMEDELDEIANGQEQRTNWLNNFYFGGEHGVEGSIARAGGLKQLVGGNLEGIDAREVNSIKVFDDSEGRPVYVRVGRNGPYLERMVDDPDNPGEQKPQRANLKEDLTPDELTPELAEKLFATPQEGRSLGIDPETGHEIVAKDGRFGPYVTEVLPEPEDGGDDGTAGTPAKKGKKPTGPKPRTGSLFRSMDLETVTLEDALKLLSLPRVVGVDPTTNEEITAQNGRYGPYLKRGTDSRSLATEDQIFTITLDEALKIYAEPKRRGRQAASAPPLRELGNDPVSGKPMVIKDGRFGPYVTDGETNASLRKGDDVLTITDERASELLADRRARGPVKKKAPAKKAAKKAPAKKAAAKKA
Report the figure in µM without appending any unit label.

[
  {
    "Smiles Structure": "COc1cc(NS(=O)(=O)c2ccc([N+](=O)[O-])cc2)ccc1Nc1c2ccccc2nc2ccccc12",
    "Tgt": "MsTopA (Mycolicibacterium smegmatis, UniProt A0R5D9)",
    "Observed": 15
  },
  {
    "Smiles Structure": "COc1cc(NS(=O)(=O)c2ccc(Cl)cc2)ccc1Nc1c2ccccc2nc2ccccc12",
    "Tgt": "MsTopA (Mycolicibacterium smegmatis, UniProt A0R5D9)",
    "Observed": 30
  },
  {
    "Smiles Structure": "COc1cc(NS(=O)(=O)c2ccc(C)cc2)ccc1Nc1c2ccccc2nc2ccccc12",
    "Tgt": "MsTopA (Mycolicibacterium smegmatis, UniProt A0R5D9)",
    "Observed": 15
  },
  {
    "Smiles Structure": "COc1cc(NS(C)(=O)=O)ccc1Nc1c2ccccc2nc2ccccc12",
    "Tgt": "MsTopA (Mycolicibacterium smegmatis, UniProt A0R5D9)",
    "Observed": 90
  }
]

Then there is this molecule:
Form field: reported ICB, inhibitory concentration that completely blocks MsTopA binding of COc1cc(NS(=O)(=O)c2ccccc2)ccc1Nc1c2ccccc2nc2ccccc12
60

###

molecular target: UniProt A0R5D9; assay: Topoisomerase I activity assay (relaxation of negatively supercoiled pUC19); type: biochemical, M. smegmatis; details: 60 μM inhibitor, 60 nM MsTopA
// values below are reported inhibition at 60 µM
Report the figure in % without appending any unit label.

Below: 4 compounds and their reported inhibition at 60 µM.
[
  {
    "Compound": "COc1cc(NS(C)(=O)=O)ccc1Nc1c2ccccc2nc2ccccc12 [Amsacrine, amsacrine]",
    "Recorded Metric": "inhibition at 60 µM",
    "Observed": 64
  },
  {
    "Compound": "COc1cc(NS(=O)(=O)c2ccc([N+](=O)[O-])cc2)ccc1Nc1c2ccccc2nc2ccccc12 [XC-3]",
    "Recorded Metric": "inhibition at 60 µM",
    "Observed": 73
  },
  {
    "Compound": "COc1cc(NS(=O)(=O)c2ccc(Cl)cc2)ccc1Nc1c2ccccc2nc2ccccc12 [XC-2]",
    "Recorded Metric": "inhibition at 60 µM",
    "Observed": 63
  },
  {
    "Compound": "COc1cc(NS(=O)(=O)c2ccccc2)ccc1Nc1c2ccccc2nc2ccccc12 [XC-1]",
    "Recorded Metric": "inhibition at 60 µM",
    "Observed": 73
  }
]

Form field: reported inhibition at 60 µM of COc1cc(NS(=O)(=O)c2ccc(C)cc2)ccc1Nc1c2ccccc2nc2ccccc12 [XC-4]
80

###

// values below are reported pIC50
tested on: M. smegmatis mc2155; assay: Growth analysis (Bioscreen C, log-phase growth rate); format: cell-based; conditions: Mycolicibacterium smegmatis, MC2155; M. smegmatis, Figure S4; read-out: IC50 (growth inhibition fitted to a sigmoidal model)
Reminder that pIC50 means the negative base-10 logarithm of the concentration expressed in mol/L.

Below: 2 molecules and their reported pIC50.
[
  {
    "Molecule": "COc1cc(NS(C)(=O)=O)ccc1Nc1c2ccccc2nc2ccccc12 [Amsacrine, amsacrine]",
    "Tgt": "M. smegmatis mc2155",
    "Observed": 4.40
  },
  {
    "Molecule": "COc1cc(NS(=O)(=O)c2ccc(C)cc2)ccc1Nc1c2ccccc2nc2ccccc12 [XC-4]",
    "Tgt": "M. smegmatis mc2155",
    "Observed": 4.57
  }
]

Form field: reported pIC50 of COc1cc(NS(=O)(=O)c2ccc([N+](=O)[O-])cc2)ccc1Nc1c2ccccc2nc2ccccc12 [XC-3]
4.57

Moving on to COc1cc(NS(=O)(=O)c2ccc(Cl)cc2)ccc1Nc1c2ccccc2nc2ccccc12 [XC-2]
4.25

Moving on to COc1cc(NS(=O)(=O)c2ccccc2)ccc1Nc1c2ccccc2nc2ccccc12 [XC-1]
4.26
